Reported IC50 values for the following compounds.
# subject_of_test: TAK1 (Homo sapiens)
# Sequence (O43318 1-303 limits assumed): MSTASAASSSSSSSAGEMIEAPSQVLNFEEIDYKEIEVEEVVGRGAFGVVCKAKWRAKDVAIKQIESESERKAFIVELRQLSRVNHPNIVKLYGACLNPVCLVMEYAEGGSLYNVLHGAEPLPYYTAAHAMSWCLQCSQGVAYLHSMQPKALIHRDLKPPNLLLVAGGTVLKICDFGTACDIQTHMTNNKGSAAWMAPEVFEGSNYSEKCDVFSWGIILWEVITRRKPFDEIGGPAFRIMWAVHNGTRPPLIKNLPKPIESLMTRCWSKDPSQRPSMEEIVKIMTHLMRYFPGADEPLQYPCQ
Give me the value, and tack the unit on after it.

1) NC(=O)[C@@H]1[C@H](Nc2nc(Nc3cccc(C(=O)N4CCCC4)c3)ncc2-c2ccnc(F)c2)[C@H]2C=C[C@@H]1C2 ... 17 nM

# IC50 (compound: NC(=O)[C@@H]1[C@H](Nc2nc(Nc3cccc(C(=O)N4CCCC4)c3)ncc2-c2ccccc2F)[C@H]2C=C[C@@H]1C2 ) is 4800 nM

response.value for N#Cc1cccc(-c2cnc(Nc3cccc(C(=O)N4CCCC4)c3)nc2N[C@H]2[C@@H](C#N)[C@@H]3C=C[C@H]2C3)c1 (field: IC50) = 132000 nM

Entry Cc1cnc(Nc2cccc(C(=O)N3CCCC3)c2)nc1N[C@H]1[C@@H](C(N)=O)[C@@H]2C=C[C@H]1C2 ; IC50 = 8 nM
